The measured values listed here are drawn from patent US6737383B1.

Task for the reader: assign each of the following molecules its reported Soybean plant response rating.
system: soybean; assay: Test B pre/postemergence soybean; assay type: in vivo, Glycine max; conditions: Postemergence, Rate 125 g/ha; scale of 0 to 10 where 0 is no effect and 10 is complete control
One number for each entry.

// worked examples, Soybean plant response rating included
>  <molecule>
C#CCn1c(=O)on(C(=O)N(c2ccc(F)cc2)C(C)C)c1=O

>  <measured_attribute>
Soybean plant response rating

>  <observed_result>
0

$$$$
>  <molecule>
Cc1noc(C)c1-n1c(=O)on(C(=O)N(c2ccc(F)cc2)C(C)C)c1=O

>  <measured_attribute>
Soybean plant response rating

>  <observed_result>
1

$$$$
>  <molecule>
CCc1noc(CC)c1-n1c(=O)on(C(=O)N(c2ccc(F)cc2)C(C)C)c1=O

>  <measured_attribute>
Soybean plant response rating

>  <observed_result>
0

$$$$

Query: # return recorded Soybean plant response rating for input CCC(C)n1c(=O)on(C(=O)N(c2ccc(F)cc2)C(C)C)c1=O (stereo not shown)
Reply: 3

====

tested on: bamyardgrass; assay: Test B flood test barnyardgrass; format: in vivo, Echinochloa crus-galli; conditions: Rate 500 g/ha, listed under Postemergence (flood test species); scale 0 to 10, 0 no effect, 10 complete control
measured_attribute: Barnyardgrass plant response rating
Numbers only.

Here is how some compounds turned out for Barnyardgrass plant response rating.
>  <compound>
CCN(CC)C(=O)n1oc(=O)n(-c2cccc3c2CCCC3)c1=O [Compound 89]

>  <measurement_target>
bamyardgrass

>  <observed_result>
0

$$$$
>  <compound>
CCN(C(=O)n1oc(=O)n(-c2c(C)cc(C)cc2C)c1=O)C1CCCCC1 [Compound 63]

>  <measurement_target>
bamyardgrass

>  <observed_result>
0

$$$$
>  <compound>
CC(C)N(C(=O)n1oc(=O)n(Cc2cccs2)c1=O)c1ccc(F)cc1 [Compound 80]

>  <measurement_target>
bamyardgrass

>  <observed_result>
9

$$$$
>  <compound>
CCc1noc(CC)c1-n1c(=O)on(C(=O)N(c2ccc(F)cc2)C(C)C)c1=O [Compound 102]

>  <measurement_target>
bamyardgrass

>  <observed_result>
0

$$$$
>  <compound>
Cc1ccccc1-n1c(=O)on(C(=O)N(c2ccc(F)cc2F)C2CC2)c1=O [Compound 50]

>  <measurement_target>
bamyardgrass

>  <observed_result>
0

$$$$

Query: Fill in Barnyardgrass plant response rating for record C=CCn1c(=O)on(C(=O)N(c2ccccc2)C(C)C)c1=O [Compound 93]
Reply: 0

====

Can you tell me Giant foxtail plant response rating for the items I'm about to list?
system: giant foxtail; experiment: Test B pre/postemergence giant foxtail; format: in vivo, Setaria faberii; settings: Preemergence, Rate 125 g/ha; scale of 0 to 10 where 0 is no effect and 10 is complete control
Numbers only.

Here are 3 molecules together with their reported answers.
>  <molecule>
CCc1nc(C)c(C(C)n2c(=O)on(C(=O)N(c3ccc(Cl)cc3)C(C)C)c2=O)s1 (stereo not shown) [Compound 590]

>  <Giant foxtail plant response rating>
0

$$$$
>  <molecule>
CC(C)N(C(=O)n1oc(=O)n(CCCCF)c1=O)c1ccccc1 [Compound 581]

>  <Giant foxtail plant response rating>
10

$$$$
>  <molecule>
CCC(C)n1c(=O)on(C(=O)N(c2ccc(F)cc2)C(C)C)c1=O (stereo not shown) [Compound 613]

>  <Giant foxtail plant response rating>
10

$$$$

Query: Provide one value: measured Giant foxtail plant response rating of CC(C)N(C(=O)n1oc(=O)n(CCCC#N)c1=O)c1ccc(F)cc1 [Compound 647]
Reply: 10
